Reference for the values: ChEMBL document CHEMBL4325901

- target.or.system: UniProt:P22303
Lab note: cut-off is 50 nM. Strictly less in IC50 is Criterion met. Exactly 50 nM or more is Criterion not met.

# input Is IC50 strictly under 50 nM for the entry `COc1c(C(=O)CCC2CCN(CC3CCCCC3)CC2)cc(Cl)c2c1ccn2S(=O)(=O)c1ccccc1` ?
# output Criterion not met

# input Is IC50 strictly under 50 nM for the entry `O=C(CCC1CCN(CC2CCCCC2)CC1)c1cc(Cl)c2[nH]ccc2c1` ?
# output Criterion met

# input Is IC50 strictly under 50 nM for the entry `COc1c(C(=O)CCC2CCN(CC3CCCCC3)CC2)ccc2[nH]ccc12` ?
# output Criterion met

# input Is IC50 strictly under 50 nM for the entry `CCCCN1CCC(CCC(=O)c2ccc3[nH]ccc3c2)CC1` ?
# output Criterion not met

# input Is IC50 strictly under 50 nM for the entry `COc1c(C(=O)CCC2CCN(Cc3ccccc3)CC2)cc(Cl)c2[nH]ccc12` ?
# output Criterion met

# input Is IC50 strictly under 50 nM for the entry `COc1c(C(=O)CCC2CCN(Cc3ccccc3)CC2)cc(Cl)c2[nH]c([Si](C)(C)C)cc12` ?
# output Criterion not met

# input Is IC50 strictly under 50 nM for the entry `COc1c(C(=O)CCC2CCN(CC3CCCCC3)CC2)cc(Cl)c2c1ccn2C` ?
# output Criterion not met

# input Is IC50 strictly under 50 nM for the entry `COc1c(C(=O)CCC2CCN(CC3CCCCC3)CC2)cc(Cl)c2[nH]ccc12` ?
# output Criterion not met

# input Is IC50 strictly under 50 nM for the entry `O=C(CCC1CCN(CC2CCCC2)CC1)c1ccc2[nH]ccc2c1` ?
# output Criterion not met

---

Reported values: IC50 for Acetylcholinesterase (Homo sapiens), one per item.
Response body: numeric value in nM, unit text excluded.

Bench note, Acetylcholinesterase (Homo sapiens): entry `O=C(CCC1CCN(Cc2ccccc2)CC1)c1ccc2[nH]ccc2c1` , its IC50 = 13.3

Bench note, Acetylcholinesterase (Homo sapiens): entry `COc1c(C(=O)CCC2CCN(CC3CCCCC3)CC2)cc(Cl)c2c1ccn2Cc1ccccc1` , its IC50 = 261

Bench note, Acetylcholinesterase (Homo sapiens): entry `O=C(CCC1CCN(CC2CCCCC2)CC1)c1ccc2c(ccn2Cc2ccccc2)c1` , its IC50 = 133
